percentage of cells with FITC signal values by entry
Biological target: T1, human 4-1BB (h4-1BB) on transiently transfected CHO cells (human, UniProt Q07011 24-255)
T1 construct: also called TNFRSF9; CD137
Test: flow cytometry, CHO cells transfected with human 4-1BB, antibody at 0.001 µg/ml
measurement_type: percentage of cells with FITC signal (%)

45-7G9 (antibody, V domains shown, mouse antibody purified from ascites) VH: QVQLQQPGSALVRPGASVKLSCKASGYTFSNYWIHWVKQRHGQGLEWIGNIYPASDYTNYDEKFKNKGTLTVDTSSSTAYMHLSSLTSEDSAVYYCSRGYFGSLDYWGQGTSVTVSA VL: DILLTQSPAILSVNPGERVSFSCRASQPIGTGIHWYQQRTNGSPRLLIKSASESISGIPSRFSGSGSGTDFTLTINNVESDDVGDYYCQQSYSWPTTFGGGTKLKIN ... 1
30-5F9 (antibody, V domains shown, mouse antibody purified from ascites) VH: QVQLKESGPGLVAPSQSLSITCTVSGFSLTTYDISWVRQPPGKGLEWLGVIWTGGGTNYNSSFMSRLSISKDNSKNQVFLKMNSLQVDDTAIYYCERVDYWGQGTTLTVSS VL: DVVMTQTPLSLPVSLGDQASISCRSSQSLVHSNGNTYLHWYLQKPGQSPKLLIYKVSNRFSGVPDRFSGSGSGTAFTFKISRVEAEDLGVYFCSQNTHVPWTFGGGTKLEIK ... 0.802
61-6A7 (antibody, V domains shown, mouse antibody purified from ascites) VH: EVQLQQSGAELVRPGALVKLSCKASGFNIKDYYMHWVKRRPEQGLEWIGWIDPENGNTIYDPKFQDKASITADTSSNTAYLQLSSLTSEDTAVYYCAEGLPWYFDYWGQGTTLTVSS VL: QIILTQSPALMSASPGEKVTMTCSASSSVSDMNWYQQKPRSSPTPWIYLTSNLSSGVPDRFSGSGSGTSYSLTISSMEAEDAATYYCQQWSGNPLTFGAGTRLELK ... 3.43
70-3F9 (antibody, V domains shown, mouse antibody purified from ascites) VH: QVQLQQPGAELVRPGASVKLSCKASGYTFTSYWINWVKQRPGQGLEWIGNIFPSDSYTNYNQKFKDRAKLTVDKSSSTAYMQLSSPTSEDSAVYYCTRFGSSGYPDYYTMEYWGQGTSVTVSS VL: DIQMTQSPASLSASVGETVTITCRASGNIDNYLAWYQQKQGKSPQLLVYNAKTLAEGVPSRFSGSGSGTEYSLKINSLQPEDFGSYHCQQYWTIPYTFGGGTKLEIK ... 1.25
45-8F1 (antibody, V domains shown, mouse antibody purified from ascites) VH: EVQLQQSGTVLARPGASVKMSCKASGYSFTSYWMHWVKQRPGQGLEWIGVIYPGNSDTSYNQKFKGKAKLTAVTSASTAYMDLSSLTNEDSAVYYCTRGITTAPDYWGQGTTLTVSS VL: NIVMTQSPKSMSMSVGERVTLSCKASENVGIHVSWYQQKPEQSPKLLIYGASSGYNGVPDRFTGSGSATDFTLTISSVQPEDLADYHCGQTYSYPFTFGSGTKLEIK ... 1.38
45-7E9 (antibody, V domains shown, mouse antibody purified from ascites) VH: QVQLKQSGPGLVQPSQSLSITCTVSGFSLTTYGVHWVRQPPGKGLEWLGVIWSDGNTDYNDAFISRLSITKDNSTSQVFFKMNGLQADDTAIYYCARNSITSVSFDCWGQGTTLTVSS VL: DIVMTQSQKFMSTSVGDRVSVTCKASQNVGTTVAWYQQRPGQSPKALICSASYRYSGVPDRFTGSGSGTDFTLTISNVQSEDLAEYFCQQYNSYPLTFGSGTKLEIK ... 0.703
69-3C2 (antibody, V domains shown, mouse antibody purified from ascites) VH: DVQLVESGGGLVQPGGSRKLSCAASGFSFSSFGMHWMRQAPEKGLEWVAYISSGSSAIYYADTVKGRFTISRDNPKNTLFLQMTSLRSEDTAMYYCARDWVDYWGQGTTLTVSS VL: DIQMTQSPASLSVSVGETVTITCRASENIYSNLVWYQQKQGKSPQLLVYTATKLTNGVPSRFSGSGSGTQYSLKINSLQSEDFGTYYCQHFWDTPYTFGGGTKLEMK ... 0.183
55-8F6 (antibody, V domains shown, mouse antibody purified from ascites) VH: QVQLQQPGAELVRPGASVKLSCKASGYIFTSYWINWVKQRPGQGLEWIGNIYPSDSYTNYNQKFKDKATLTVDKSSSTAYMQLSSPTSEDSAVYYCTRFHYGSSPFDNWGQGTTLTVSS VL: DIQMTQSTSSLSASLGDRVTISCRASQDISHYLNWYQQKPDGTVKLLIYYTSRLHSGVPSRFSGSGSGTDYSLTISNLEQEDFATYFCQQGHTLPRTFGGGTKLEIK ... 0.375
54-8B11 (antibody, V domains shown, mouse antibody purified from ascites) VH: QIQLVQSGPELKKPGETVKISCKASKFTFTNYGMNWVKQAPGKALKWMGWINTYTGEPTYADDFKGRFDFSLETSATTAYLQINNLKNEDTATYFCARREYYPWVFVYWGQGTLVTVSA VL: ENVLTQSPAIMSASPGEKVTMTCSASSSVSYMHWYQQKSSTSPKLWIYDTSKLASGVPGRFSGSGSGNSYSLTISSMEAEDVATYYCFQGSGYPLTFGGGTKLEIK ... 0.111
45-4B9 (antibody, V domains shown, mouse antibody purified from ascites) VH: EVQLQQSGPELVKPGASVKMSCKASGYTFTTYVMYWVKQRPGQGLEWIGYINPYNDDIRYNEKFKGKATLTSDRSSSTAYMELSSLTSEDSAVYLCARQGGDYWGQGTILTVSS VL: DVQITQSPSYLAASPGETITVNCRASKNINKYLAWYQEKPGKTNKLLIYSGSTLQSGIPSRFSGSGSGTDFTLTISSLEPEDFAVYHCQQYNEYPLTFGAGTKLEMK ... 1.86
